- subject_of_test: T1, human Trophoblast cell surface antigen 2 (TROP2) (human, UniProt P09758 27-274, limits assumed)
- T1 construct: Analyte in the SPR experiments and immunogen; also called human TROP2
- T1 sequence: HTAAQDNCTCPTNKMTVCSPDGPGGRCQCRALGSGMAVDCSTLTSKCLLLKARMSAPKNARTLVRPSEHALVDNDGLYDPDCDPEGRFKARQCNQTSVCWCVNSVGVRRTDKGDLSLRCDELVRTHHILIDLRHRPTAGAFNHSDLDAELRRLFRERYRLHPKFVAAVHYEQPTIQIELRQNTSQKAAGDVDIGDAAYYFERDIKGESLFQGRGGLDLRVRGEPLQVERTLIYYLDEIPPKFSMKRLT
- measurement_protocol: SPR affinity ranking, human TROP2
reported_property: kon (M⁻¹ s⁻¹)

binder="HC1/LC5 (antibody, human IgG1, kappa, V domains shown, Humanized anti-TROP2 antibody; also called DP002-HC1LC5) VH: QVQLVQSGAEVKKPGASVKVSCKASGYTFTDYSINWVRQAPGQGLEWMGVISTYYGDASYNQKFKGRVTMTTDTSTSTAYMELRSLRSDDTAVYYCARYGDGYNQFDYWGQGTMVTVSS VL: DIQMTQSPSSLSASVGDRVTITCRVSESVDSYGNNFMHWYQQKPGKAPKLLIYRASNLESGVPSRFSGSGSGTDFTFTISSLQPEDIATYYCQQSYEDPYTFGGGTKLEIKR" reported_property=kon experimental_result=1.39e+06
binder="HC3/LC2 (antibody, human IgG1, kappa, V domains shown, Humanized anti-TROP2 antibody) VH: QVQLVQSGAEVKKPGASVKVSCKASGYTFTDYSINWVRQAPGQRLEWMGVISTYYGDASYNQKFKGRVTITRDTSASTAYMELSSLRSEDTAVYYCARYGDGYNQFDYWGQGTLVTVSS VL: DVVMTQSPLSLPVTLGQPASISCRVSESVDSYGNNFMHWFQQRPGQSPRRLIYRASNLESGVPDRFSGSGSGTDFTLKISRVEAEDVGVYYCQQSYEDPYTFGGGTKVEIKR" reported_property=kon experimental_result=169000
binder="HC4/LC1 (antibody, human IgG1, kappa, V domains shown, Humanized anti-TROP2 antibody) VH: QVQLVQSGAEVKKPGSSVKVSCKASGYTFTDYSINWVRQAPGQGLEWMGVISTYYGDASYNQKFKGRVTITADESTSTAYMELSSLRSEDTAVYYCARYGDGYNQFDYWGQGTLVTVSS VL: DIVMTQSPDSLAVSLGERATINCRVSESVDSYGNNFMHWYQQKPGQPPKLLIYRASNLESGVPDRFSGSGSGTDFTLTISSLQAEDVAVYYCQQSYEDPYTFGQGTKLEIKR" reported_property=kon experimental_result=1.69e+06
binder="HC2/LC3 (antibody, human IgG1, kappa, V domains shown, Humanized anti-TROP2 antibody) VH: QVQLVQSGAEVKKPGASVKVSCKASGYTFTDYSINWVRQAPGQGLEWMGVISTYYGDASYNQKFKGRVTMTRDTSTSTVYMELSSLRSEDTAVYYCARYGDGYNQFDYWGQGTLVTVSS VL: DIVMTQSPLSLPVTPGEPASISCRVSESVDSYGNNFMHWYLQKPGQSPQLLIYRASNLESGVPDRFSGSGSGTDFTLKISRVEAEDVGVYYCQQSYEDPYTFGGGTKVEIKR" reported_property=kon experimental_result=1.36e+06
binder="HC4/LC3 (antibody, human IgG1, kappa, V domains shown, Humanized anti-TROP2 antibody) VH: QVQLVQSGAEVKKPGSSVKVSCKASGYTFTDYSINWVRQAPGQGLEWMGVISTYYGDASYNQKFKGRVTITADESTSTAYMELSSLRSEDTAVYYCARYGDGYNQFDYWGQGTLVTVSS VL: DIVMTQSPLSLPVTPGEPASISCRVSESVDSYGNNFMHWYLQKPGQSPQLLIYRASNLESGVPDRFSGSGSGTDFTLKISRVEAEDVGVYYCQQSYEDPYTFGGGTKVEIKR" reported_property=kon experimental_result=1.95e+06
binder="HC5/LC3 (antibody, human IgG1, kappa, V domains shown, Humanized anti-TROP2 antibody) VH: EVQLVQSGAEVKKPGESLKISCKGSGYTFTDYSINWVRQMPGKGLEWMGVISTYYGDASYNQKFKGQVTISADKSISTAYLQWSSLKASDTAMYYCARYGDGYNQFDYWGQGTLVTVSS VL: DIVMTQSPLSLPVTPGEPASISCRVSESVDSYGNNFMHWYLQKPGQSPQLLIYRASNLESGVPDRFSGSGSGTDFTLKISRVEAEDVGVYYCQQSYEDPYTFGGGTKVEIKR" reported_property=kon experimental_result=1.46e+06
binder="HC3/LC5 (antibody, human IgG1, kappa, V domains shown, Humanized anti-TROP2 antibody) VH: QVQLVQSGAEVKKPGASVKVSCKASGYTFTDYSINWVRQAPGQRLEWMGVISTYYGDASYNQKFKGRVTITRDTSASTAYMELSSLRSEDTAVYYCARYGDGYNQFDYWGQGTLVTVSS VL: DIQMTQSPSSLSASVGDRVTITCRVSESVDSYGNNFMHWYQQKPGKAPKLLIYRASNLESGVPSRFSGSGSGTDFTFTISSLQPEDIATYYCQQSYEDPYTFGGGTKLEIKR" reported_property=kon experimental_result=1.32e+06
binder="HC3/LC3 (antibody, human IgG1, kappa, V domains shown, Humanized anti-TROP2 antibody) VH: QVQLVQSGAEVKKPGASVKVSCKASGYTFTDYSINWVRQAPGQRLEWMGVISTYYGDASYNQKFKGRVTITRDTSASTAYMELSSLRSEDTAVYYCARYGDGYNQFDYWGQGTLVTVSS VL: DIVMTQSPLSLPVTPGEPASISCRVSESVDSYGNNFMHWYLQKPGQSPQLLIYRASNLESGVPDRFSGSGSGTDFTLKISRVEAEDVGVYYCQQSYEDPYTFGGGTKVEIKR" reported_property=kon experimental_result=1.49e+06
binder="HC4/LC4 (antibody, human IgG1, kappa, V domains shown, Humanized anti-TROP2 antibody) VH: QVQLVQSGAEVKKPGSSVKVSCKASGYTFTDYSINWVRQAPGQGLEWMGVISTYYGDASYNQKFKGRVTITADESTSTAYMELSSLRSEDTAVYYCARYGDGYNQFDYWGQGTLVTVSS VL: EIVLTQSPATLSLSPGERATLSCRVSESVDSYGNNFMHWYQQKPGQAPRLLIYRASNLESGIPARFSGSGSGTDFTLTISSLEPEDFAVYYCQQSYEDPYTFGGGTKVEIKR" reported_property=kon experimental_result=1.71e+06
binder="HC1/LC1 (antibody, human IgG1, kappa, V domains shown, Humanized anti-TROP2 antibody; also called DP002-HC1LC1) VH: QVQLVQSGAEVKKPGASVKVSCKASGYTFTDYSINWVRQAPGQGLEWMGVISTYYGDASYNQKFKGRVTMTTDTSTSTAYMELRSLRSDDTAVYYCARYGDGYNQFDYWGQGTMVTVSS VL: DIVMTQSPDSLAVSLGERATINCRVSESVDSYGNNFMHWYQQKPGQPPKLLIYRASNLESGVPDRFSGSGSGTDFTLTISSLQAEDVAVYYCQQSYEDPYTFGQGTKLEIKR" reported_property=kon experimental_result=1.63e+06
